System: Caco-2 cells
PROCEDURE SUMMARY: Drug transport across human Caco-2 cells
Format: in vitro ADME
CONDITIONS USED: basal-to-apical, pH 7.2, 37° C.
PARAMETER: PEBA (×10⁻⁶ cm/s)

COMPOUND: CC(=O)C1=C(C)N(c2cccc(C(F)(F)F)c2)C(=O)N(C)C1c1ccc(C#N)cc1C(=O)NCCF (stereo not shown)
PARAMETER: PEBA
UNIT: ×10⁻⁶ cm/s
READOUT NUMBER: 78

COMPOUND: CC(=O)C1=C(C)N(c2cccc(C(F)(F)F)c2)C(=O)N(C)C1c1ccc(C#N)cc1C(=O)NC1CC1 (stereo not shown)
PARAMETER: PEBA
UNIT: ×10⁻⁶ cm/s
READOUT NUMBER: 74

COMPOUND: CC(=O)C1=C(C)N(c2cccc(C(F)(F)F)c2)C(=O)N(C)C1c1ccc(C#N)cc1C(=O)NCC#N (stereo not shown)
PARAMETER: PEBA
UNIT: ×10⁻⁶ cm/s
READOUT NUMBER: 81

COMPOUND: CNC(=O)c1cc(C#N)ccc1[C@@H]1C(C(C)=O)=C(C)N(c2cccc(C(F)(F)F)c2)C(=O)N1C
PARAMETER: PEBA
UNIT: ×10⁻⁶ cm/s
READOUT NUMBER: 80

----------
PROCEDURE SUMMARY: Metabolic stability with human liver microsomes
Format: in vitro ADME
CONDITIONS USED: pooled human liver microsomes, 1 μM compound, 37° C.

COMPOUND: CNC(=O)c1cc(C#N)ccc1[C@@H]1C(C(C)=O)=C(C)N(c2cccc(C(F)(F)F)c2)C(=O)N1C
UNIT: h
RESULT QUALIFIER: >
t1/2 INVITRO: 2.17
--
COMPOUND: CC(=O)C1=C(C)N(c2cccc(C(F)(F)F)c2)C(=O)N(C)C1c1ccc(C#N)cc1C(=O)NC1CC1 (stereo not shown)
UNIT: h
RESULT QUALIFIER: =
t1/2 INVITRO: 1.83
--
COMPOUND: CC(=O)C1=C(C)N(c2cccc(C(F)(F)F)c2)C(=O)N(C)C1c1ccc(C#N)cc1C(=O)NCCF (stereo not shown)
UNIT: h
RESULT QUALIFIER: >
t1/2 INVITRO: 2.17
--
COMPOUND: CC(=O)C1=C(C)N(c2cccc(C(F)(F)F)c2)C(=O)N(C)C1c1ccc(C#N)cc1C(=O)NCC#N (stereo not shown)
UNIT: h
RESULT QUALIFIER: =
t1/2 INVITRO: 2.17

----------
TARGET: neutrophil elastase (Homo sapiens (Human))
Sequence (P08246 30-247): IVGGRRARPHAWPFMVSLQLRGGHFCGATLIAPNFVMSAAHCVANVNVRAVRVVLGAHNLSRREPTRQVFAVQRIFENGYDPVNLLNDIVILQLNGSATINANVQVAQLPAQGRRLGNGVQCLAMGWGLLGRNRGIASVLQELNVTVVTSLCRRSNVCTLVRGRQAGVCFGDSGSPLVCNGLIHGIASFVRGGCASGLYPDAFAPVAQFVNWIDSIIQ
PROCEDURE SUMMARY: Human Neutrophil Elastase Assay
CONDITIONS USED: substrate MeOSuc-Ala-Ala-Pro-Val-AMC
Measured IC50 values are reported for all entries that follow.

MOLECULE: CCOC(=O)C1=C(C)N(c2cccc(C(F)(F)F)c2)C(=O)N(C)C1c1ccc(C#N)cc1C(=O)NCCF (stereo not shown) [Example 3.11]
IC50: < 1 nM
//
MOLECULE: CCOC(=O)C1=C(C)N(c2cccc(C(F)(F)F)c2)C(=O)N(C)C1c1ccc(C#N)cc1-c1ccn(C)n1 (stereo not shown) [Example 14.7]
IC50: 2.4 nM
//
MOLECULE: CCOC(=O)C1=C(C)N(c2cccc(C(F)(F)F)c2)C(=O)N(C)C1c1ccc(C#N)cc1C(=O)NC1COC1 (stereo not shown) [Example 3.14]
IC50: < 1 nM
//
MOLECULE: CC(=O)C1=C(C)N(c2cccc(C(F)(F)F)c2)C(=O)N(C)C1c1ccc(C#N)cc1C(=O)NCCF (stereo not shown) [Example 1.10]
IC50: < 1 nM

src = patent US9290457B2
